# measurement-description: self-splicing fitness, log relative to wild type (ln ratio); higher = more splicing; Tetrahymena group I intron in knt gene, E. coli kanamycin selection, DiMSum; sequences stand for … in CUCUCU…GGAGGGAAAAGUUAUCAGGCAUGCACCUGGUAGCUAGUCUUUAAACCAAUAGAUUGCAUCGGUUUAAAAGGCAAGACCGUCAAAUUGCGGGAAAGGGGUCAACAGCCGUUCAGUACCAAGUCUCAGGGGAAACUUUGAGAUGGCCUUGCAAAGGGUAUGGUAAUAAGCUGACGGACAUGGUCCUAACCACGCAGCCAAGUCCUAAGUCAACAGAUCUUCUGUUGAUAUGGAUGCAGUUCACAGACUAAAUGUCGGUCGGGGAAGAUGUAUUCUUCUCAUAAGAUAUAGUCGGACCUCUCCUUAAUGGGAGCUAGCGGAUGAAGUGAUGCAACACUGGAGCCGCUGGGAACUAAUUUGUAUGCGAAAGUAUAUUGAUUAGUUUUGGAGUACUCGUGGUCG;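 also: selection with 25 µg/mL kanamycin versus none on LB agar overnight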
# details: 30 °C
Label rule, in plain words: self-splicing fitness (ln) of -2 and up is YES, under -2 is NO.

These solved cases illustrate the format of a correct answer.
| item-sequence | label |
| --- | --- |
| AAAGAGCAAUAUUACGACUG | NO |
| GUAGAGCAAUAUUACGCCAU | YES |
| CGAUAGCAAUAUUACGAGUU | NO |

Item "AGCAAGCAAUAUUACGGCCC" with self-splicing fitness (ln) of -2 or above?
YES
